target: HLA-A*02:01 (Homo sapiens, UniProt P04439, D140Y/D185E/D98H/E176V/E277Q/G131W/G231S/I119V/I121R/I166T/I218V/L300P/L318F/N151K/N90K/P208A/P217A/Q86G/Q94H/R138H/R169H/T345S); assay: MHC binding assay (UV-ligand exchange, β2m ELISA, peptide exchange yield); conditions: MHC class I binding score; binding to HLA-A*02:01 ranged by peptide exchange yield (UV-ligand exchange, β2m ELISA)
measure name: Peptide exchange

substance | Peptide exchange
602 (YLLEQIKLIEV; listed as Homo sapiens) [compound 602] | “++++” (≧75% = ++++)
622 (RLLGEEVVRVLQA; listed as Homo sapiens) [compound 622] | “+++” (≧50 = +++)
619 (ALQDRVPLA; listed as Homo sapiens) [compound 619] | “+++” (≧50 = +++)
39 (SVAPNLPAV; listed as Homo sapiens) [compound 39] | “+++” (≧50 = +++)
552 (GLLDLPFRVGV; listed as Homo sapiens) [compound 552] | “++++” (≧75% = ++++)
596 (ALLDQTKTLAESAL; listed as Homo sapiens) [compound 596] | “+++” (≧50 = +++)
212 (ALWDQDNLSV; listed as Homo sapiens) [compound 212] | “++” (≧20% = ++)
140 (YMDAPKAAL; listed as Homo sapiens) [compound 140] | “++” (≧20% = ++)

Now consider the entry below.
Name the recorded Peptide exchange of the substance listed here: 151 (KILQQLVTL; listed as Homo sapiens) [compound 151] “+++” (≧50 = +++)

Every entry's value here was drawn from patent US20170002055A1.
